Quick list: fold difference in affinity vs original per entry.
target-entity: T1, IL-1β (UniProt P01584 117-269)
T1 construct: Antigen immobilised on the Biacore chip
experimental-protocol: Biacore, periplasmic extract
Report the figure in fold without appending any unit label.

XPA23 light chain S50H (Fab, V domains shown) VH: EVQLLESGGGLVQPGGSLRLSCAASGFTFSKYFMFWVRQAPGKGLEWVSVISPSGGMTRYADSVKGRFTISRDNSKNTLYLQMNSLRAEDTAVYYCARVGYGGNSDYWGQGTLVTVSS VL: DIQMTQSPSSVSASVGDRLTIICRASQDINRWLAWYQQTPGNAPKLLIHHATSLQSGVPSRFSGSGSGTDFTLTINSLQPEDFATYYCQQADSFPLTFGGGTKVEIK | 0.05

From here, focus on the item given below.
Query: May I ask what fold difference in affinity vs original has been recorded for XPA23 light chain S50A (Fab, V domains shown) VH: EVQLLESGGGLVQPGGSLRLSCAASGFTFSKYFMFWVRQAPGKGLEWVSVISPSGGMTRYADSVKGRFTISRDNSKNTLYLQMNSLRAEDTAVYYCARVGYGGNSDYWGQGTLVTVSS VL: DIQMTQSPSSVSASVGDRLTIICRASQDINRWLAWYQQTPGNAPKLLIHAATSLQSGVPSRFSGSGSGTDFTLTINSLQPEDFATYYCQQADSFPLTFGGGTKVEIK ?
Result: 0.13

Source of measurements: patent US20110118131A1
